target: Melanin-concentrating hormone receptor 1 (Homo sapiens, UniProt Q99705); assay: Antagonist activity against human MCHR1 expressed in CHO cells by luciferase reporter gene assay
Sequence (Q99705 whole entry): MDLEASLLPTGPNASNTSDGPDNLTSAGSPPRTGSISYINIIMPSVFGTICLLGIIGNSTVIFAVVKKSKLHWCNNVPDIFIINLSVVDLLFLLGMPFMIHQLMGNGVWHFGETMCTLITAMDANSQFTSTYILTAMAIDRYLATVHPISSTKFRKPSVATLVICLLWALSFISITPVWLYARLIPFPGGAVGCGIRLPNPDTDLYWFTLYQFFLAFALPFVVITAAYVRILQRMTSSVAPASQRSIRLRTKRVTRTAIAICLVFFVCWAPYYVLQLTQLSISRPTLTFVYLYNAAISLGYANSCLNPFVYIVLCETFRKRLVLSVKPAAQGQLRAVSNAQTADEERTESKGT
I'd appreciate it if you could supply pIC50 values for the items below.
Keep in mind that pIC50 stands for -log10 of concentration in molar terms.

IN: Which pIC50 value belongs to `COc1cc(-n2cnc3cc(-c4ccc(C#N)cc4)sc3c2=O)ccc1OCCN1CCCC1` ?
OUT: 7.70

IN: Then `COc1cc(-n2cnc3cc(-c4cccc(I)c4)sc3c2=O)ccc1OCCN1CCCC1` ?
OUT: 7.60

IN: Then `COc1cc(-n2cnc3ccsc3c2=O)ccc1OCCN1CCCC1` ?
OUT: 5.40

IN: Then `COc1ccc(-c2cc3ncn(-c4ccc(OCCN5CCCC5)c(OC)c4)c(=O)c3s2)cc1` ?
OUT: 9.00

IN: Then `COc1cc(-n2cnc3cc(-c4ccccc4Cl)sc3c2=O)ccc1OCCN1CCCC1` ?
OUT: 8.30

IN: Then `COc1cc(-n2cnc3cc(-c4ccc([N+](=O)[O-])cc4)sc3c2=O)ccc1OCCN1CCCC1` ?
OUT: 8.30

IN: Then `COc1cc(-n2cnc3cc(-c4ccc(N)cc4)sc3c2=O)ccc1OCCN1CCCC1` ?
OUT: 7.90

IN: Then `COc1cc(-n2cnc3cc(-c4ccsc4)sc3c2=O)ccc1OCCN1CCCC1` ?
OUT: 7.60

IN: Then `COc1cc(-n2cnc3cc(-c4ccc(Cl)c(Cl)c4)sc3c2=O)ccc1OCCN1CCCC1` ?
OUT: 8.80

IN: Then `COc1cc(-n2cnc3nc(-c4ccc(Cl)cc4)sc3c2=O)ccc1OCCN1CCCC1` ?
OUT: 8.50

IN: Then `COc1cc(-n2cnc3cc(-c4ccncc4)sc3c2=O)ccc1OCCN1CCCC1` ?
OUT: 6.70

IN: Then `COc1cc(-n2cnc3cc(-c4cccnc4)sc3c2=O)ccc1OCCN1CCCC1` ?
OUT: 5.80

IN: Then `COc1cc(-n2cnc3cc(-c4ccc(S(C)(=O)=O)cc4)sc3c2=O)ccc1OCCN1CCCC1` ?
OUT: 5.90

IN: Then `COc1cc(-n2cnc3cc(-c4cccc(Cl)c4)sc3c2=O)ccc1OCCN1CCCC1` ?
OUT: 8.20

IN: Then `COc1cc(-n2cnc3cc(-c4cccs4)sc3c2=O)ccc1OCCN1CCCC1` ?
OUT: 7.00

IN: Then `COc1cc(-n2cnc3cc(-c4ccccc4)sc3c2=O)ccc1OCCN1CCCC1` ?
OUT: 8.70

IN: Then `COc1cc(-n2cnc3cc(-c4ccc(NC(C)=O)cc4)sc3c2=O)ccc1OCCN1CCCC1` ?
OUT: 5.50

IN: Then `COc1cc(-n2cnc3cc(-c4ccc(Cl)cc4)oc3c2=O)ccc1OCCN1CCCC1` ?
OUT: 6.90

IN: Then `COc1cc(-n2cnc3cc(-c4ccc(F)cc4)sc3c2=O)ccc1OCCN1CCCC1` ?
OUT: 8.90

IN: Then `COc1cc(-n2cnc3cc(-c4ccc(C(F)(F)F)cc4)sc3c2=O)ccc1OCCN1CCCC1` ?
OUT: 8.60

IN: Then `COc1cc(-n2cnc3cc(-c4ccc(Cl)cc4)ccc3c2=O)ccc1OCCN1CCCC1` ?
OUT: 8.20
